tested on: NCI-H23 lung; experiment: NCI tumour cell line growth inhibition, 48 h
Where a SMILES comes first, the peptide text is derived from it. Bridges are numbered along the chain shown (N, C = ends). [ ]: non-standard residue; d: D form. aThr = C[C@H](O)[C@H](N)C(=O)O
Answer each item with its documented TGI.

Known results for compounds:
Compound	Measured quantity	Value observed
O=C1NC(=O)C2C(=O)NC(=O)C1C2Cc1ccco1 (centres undefined)	TGI	> 100 µM
CC(C)C[C@@H]1NC(=O)[C@@H]2CCCN2C(=O)[C@@H]2CCCN2C(=O)[C@H](CC(C)C)NC(=O)[C@H](CO)NC(=O)[C@H](CCCCN)NC(=O)[C@H]([C@H](C)O)NC(=O)[C@@H]2CSSC[C@@H](NC1=O)C(=O)N[C@@H](Cc1ccccc1)C(=O)N1CCC[C@H]1C(=O)N[C@@H](CC(=O)O)C(=O)NCC(=O)N[C@@H](CCCN=C(N)N)C(=O)N2 (cyclo(C[aThr]KSLPPL[dC]FPDGR); disulfide 1-9)	TGI	> 50 µM
Clc1ccc(C=Nc2ccc(Oc3ccc(Cl)cc3)c(Cl)c2)cc1	TGI	54.2 µM
COC(=O)/C=C(\C(=O)OC)c1cc(C)c2cc(C(C)C)ccc(C)c1-2	TGI	> 100 µM
COc1ccc(-c2cc(/C=C/C(=O)c3ccc(N)cc3)[nH]n2)cc1OC	TGI	19.3 µM
NC(N)=NCCCC(NCc1c2ccccc2nc2ccccc12)C(=O)O (centres undefined)	TGI	> 100 µM
COc1cc(OC)c(OC)cc1/C=C/c1nc2ccccc2s1	TGI	> 100 µM
COC(=O)C1=C(C(=O)OC)C2(c3ccccc3)OC1(c1ccccc1)c1cc3ccccc3cc12	TGI	4.48 µM

Please state, for each entry, its recorded TGI.
1. O=C(CCc1cc(O)cc(O)c1)NCCc1cc(O)cc(OCc2ccccc2)c1
2. CCOC(=O)C1(C/C=C\CBr)CCCC1=O (centres undefined)
3. CNCc1ccc(-c2cc(-c3nc(-c4ccc(S(=O)(=O)C(C)C)cc4)cnc3N)on2)cc1
4. O=c1[nH]c2[nH]c(=S)[nH]c(=S)c2[nH]1
5. CC(=O)OCC(=O)[C@@]1(O)CC[C@H]2[C@@H]3C[C@H](C)C4=CC(=O)C=C[C@]4(C)[C@@]3(F)[C@@H](O)C[C@@]21C
6. CSC(=O)/C=C1\SS/C(=C\C(=O)SC)S1

RESULT:
1. > 100 µM
2. 56.7 µM
3. 28.3 µM
4. > 100 µM
5. > 100 µM
6. 27.6 µM

For every record below, what is its TGI?
1. CSCCC(C(=O)O)N(C)C (centres undefined)
2. CC12OC(=O)C(C#N)C1(C)C1C(=O)CCCC12 (centres undefined)
3. C[C@@H]1CC[C@]2(C)C3(C)CC[C@]2(OC3=O)[C@@]12CC(c1ccoc1)OC2=O (some centres undefined)

RESULT:
["> 100 µM", "> 100 µM", "> 100 µM"]

Hi there! I need TGI for each item below, if you can.
1. COc1ccc2nc(NC(=O)C(=O)CC(=O)c3ccc([N+](=O)[O-])cc3)sc2c1
2. [O]=[V]([OH])([OH])[OH]
3. Cc1nc2ccccc2c(=O)n1/N=C(\N=Nc1ccccc1Cl)c1ccccc1Cl
4. C=CCNC(=O)C(C)C1CCC2(C)C=CC(=O)C(C)=C2C1O (centres undefined)
5. COc1ccc(OC)c2sc(N3C(=O)/C(=C/c4cccc(Oc5ccccc5)c4)N=C3c3ccccc3)nc12
6. [B]C(=O)NC(CC(C)C)C(=O)NCC(=O)NC1c2ccsc2C(=O)C1O (centres undefined) (tested in a mixture with another compound)
7. C1CSCCSCCCS[C@@H]2CCCCC2SC1 (some centres undefined)

RESULT:
["> 100 µM", "> 100 µM", "> 100 µM", "> 100 µM", "> 100 µM", "> 100 µM", "> 100 µM"]
